Values compiled from PubChem BioAssay AID1996.

condition: buffer; pH 7.4; 200.0 µM
Measured solubility kinetic by item

[in] Quickly give me recorded solubility kinetic for `CC(=O)N[C@@H](CS)C(=O)O`
[out] > 24.5 µg/mL

[in] Quickly give me recorded solubility kinetic for `CCCc1cc(C(=O)Nc2ccc(C(=O)OC)cc2)cs1`
[out] < 0.6 µg/mL

[in] Quickly give me recorded solubility kinetic for `COc1ccc2nc(SCC(=O)NCCc3ccccc3)[nH]c2c1`
[out] > 51.2 µg/mL

[in] Quickly give me recorded solubility kinetic for `CC(C)(C)c1ccc(S(=O)(=O)N2CCN(C3CCCC3)CC2)cc1`
[out] < 0.4 µg/mL

[in] Quickly give me recorded solubility kinetic for `CCOc1ccccc1N1CN(C2CCCCC2)CNC1=S`
[out] > 47.9 µg/mL

* * *

condition: buffer; pH 7.4; 200.0 µM
metric: solubility kinetic

Use these answered entries as a reference point.
molecule: CC1CCCCN1C(=O)CSc1nc2ncccc2[nH]1 (centres undefined)
solubility kinetic: > 43.6 µg/mL

molecule: CC(C)Oc1ccc(C(=O)NCC(=O)O)cc1
solubility kinetic: > 35.6 µg/mL

molecule: O=C(N/N=C/c1cccnc1)c1cccs1
solubility kinetic: > 34.7 µg/mL

molecule: Cc1ccc(NC(=O)N[C@@H](CC(C)C)C(=O)O)c(C)c1
solubility kinetic: > 41.8 µg/mL

molecule: CCC(C)NC(=O)C1CC(=O)N(CCc2ccc(F)cc2)C1 (centres undefined)
solubility kinetic: > 46 µg/mL

molecule: COC(c1ccccc1)c1nc2ccccc2[nH]c1=O (centres undefined)
solubility kinetic: > 39.9 µg/mL

molecule: Cc1ccccc1N1C(=O)C2C3CCC(O3)C2C1=O (centres undefined)
solubility kinetic: > 38.6 µg/mL

molecule: COc1ccc(NC(=O)CN(C)C(=O)C2=COCCO2)cc1
solubility kinetic: > 45.9 µg/mL

molecule: CSc1nc(N(C)C)nc(N(C)C#N)n1
solubility kinetic: > 33.6 µg/mL

molecule: O=C(CC1CCOCC1)Nc1ccc(Cl)c(Cl)c1
solubility kinetic: > 43.2 µg/mL

[in] Quickly give me recorded solubility kinetic for `COc1cccc(NC(=O)C(=O)NCCc2ccc(F)cc2)c1`
[out] < 0.3 µg/mL

[in] Quickly give me recorded solubility kinetic for `Fc1cccc(/C=N/Nc2nccnc2Cl)c1`
[out] > 37.6 µg/mL

[in] Quickly give me recorded solubility kinetic for O=C(Nc1cccc(NC(=O)C2CCCO2)c1)C1CCCO1 (centres undefined)
[out] > 45.7 µg/mL

[in] Quickly give me recorded solubility kinetic for `O=S(=O)(NCCc1ccc(Cl)cc1)c1cccs1`
[out] > 45.3 µg/mL

* * *

condition: buffer; pH 7.4; 200.0 µM
metric: solubility kinetic (µg/mL)
Kindly answer with a numeric value in µg/mL, unit omitted.

[in] Quickly give me recorded solubility kinetic for `CC(C)N1CCN(C(=O)c2ccc([N+](=O)[O-])cc2)CC1`
[out] 27.3

* * *

condition: buffer; pH 7.4; 200.0 µM
metric: solubility kinetic (µg/mL)
Kindly answer with a numeric value in µg/mL, unit omitted.

Use these answered entries as a reference point.
molecule: O=C1Nc2ccccc2C1Cc1nc2ccccc2c(=O)n1-c1ccccc1 (stereo unspecified)
metric: solubility kinetic
unitsSymbol: µg/mL
reportedResult: 55.1
--
molecule: Cc1cc(OC(=O)c2ccccc2Cl)ccc1N1C(=O)CCC1=O
metric: solubility kinetic
unitsSymbol: µg/mL
reportedResult: 19
--
molecule: CC(C)c1ccc(NC(=O)CC2Oc3ccccc3NC2=O)cc1 (stereo unspecified)
metric: solubility kinetic
unitsSymbol: µg/mL
reportedResult: 1.3
--
molecule: CCNC(=S)N1CCC(C(=O)c2ccc3c(c2)OCCO3)CC1
metric: solubility kinetic
unitsSymbol: µg/mL
reportedResult: 44.8
--
molecule: O=C(Nc1ccc(F)cc1)c1cc2ccccc2o1
metric: solubility kinetic
unitsSymbol: µg/mL
reportedResult: 1.9

[in] Quickly give me recorded solubility kinetic for `Cc1ccc(C(=O)N2CCN(c3ccc(C(F)(F)F)cn3)CC2)o1`
[out] 19.8

[in] Quickly give me recorded solubility kinetic for `O=C(NC1CCCCC1)Oc1ccccc1`
[out] 18.3

[in] Quickly give me recorded solubility kinetic for `COC(=O)CNC(=O)c1ccc(F)cc1`
[out] 27.1

* * *

condition: buffer; pH 7.4; 200.0 µM
metric: log10(solubility kinetic) (log10 of the value in µg/mL)
Quick note: numbers are log10 of solubility kinetic, with µg/mL as the unit.

Use these answered entries as a reference point.
molecule: CCN(CC)CCNC(=O)COc1ccc(OC)cc1
log10(solubility kinetic): 1.51
--
molecule: O=C(O)c1[nH]c2ccccc2c1C=NCc1ccccc1Cl
log10(solubility kinetic): 1.67
--
molecule: COc1ccc(C(=O)NCc2ccc3c(c2)CCO3)cc1
log10(solubility kinetic): 1.51
--
molecule: COc1ccc(NC(=O)C2(c3cccs3)CCOCC2)cc1
log10(solubility kinetic): 1.56
--
molecule: Cc1cccc(-c2noc(CN(C)C(=O)COc3ccccc3)n2)c1
log10(solubility kinetic): 1.57
--
molecule: O=C(CN1C(=O)C(=O)N(C2CCCC2)C1=O)Nc1cc(Cl)ccc1[N+](=O)[O-]
log10(solubility kinetic): 1.42
--
molecule: COc1ccccc1/C(C)=N/Oc1cc(N)cc([N+](=O)[O-])c1
log10(solubility kinetic): 0.23
--
molecule: O=C(COC(=O)c1c[nH]c2ccccc12)NC1CCCCC1
log10(solubility kinetic): 1.13
--
molecule: Cc1ccccc1Nc1c([N+](=O)[O-])ccc2nonc12
log10(solubility kinetic): -0.70
--
molecule: CSc1ccccc1C(=O)C1CCCN(Cc2ccncc2)C1 (centres undefined)
log10(solubility kinetic): 1.62

[in] Quickly give me recorded log10(solubility kinetic) for `COc1cc2ncnc(Nc3ccc4c(c3)OCO4)c2cc1OC`
[out] 1.00

[in] Quickly give me recorded log10(solubility kinetic) for `Cc1nc2ccc(NC(=O)C3CCCCC3)cc2s1`
[out] 1.12

[in] Quickly give me recorded log10(solubility kinetic) for `CSc1ccccc1NC(=O)c1cc(-c2ccco2)on1`
[out] 0.04

[in] Quickly give me recorded log10(solubility kinetic) for O=C(Nc1cccc(Cl)c1)OC1CCCCc2cccnc21 (centres undefined)
[out] 0.97

[in] Quickly give me recorded log10(solubility kinetic) for CC(C(=O)NC1CCCCC1)N1C(=O)c2cccc3cccc1c23 (centres undefined)
[out] 0.54

[in] Quickly give me recorded log10(solubility kinetic) for CC1CCCCC1NC(=S)NC(=O)c1cccs1 (centres undefined)
[out] 0.74

* * *

condition: buffer; pH 7.4; 200.0 µM
Output true (1) for solubility kinetic not less than 40 µg/mL; output false (0) otherwise.

compound: O=C(Nc1ccccc1)N1CCN(CCc2ccccc2)CC1
cat: true (1)
--
compound: COCCCNC(=O)c1ccccc1-c1cc(C)no1
cat: false (0)

[in] Reported solubility kinetic at or above 40 µg/mL? CCC(C)N1CCN(S(=O)(=O)c2ccc(NC(C)=O)cc2)CC1 (stereo not given)
[out] true (1)

* * *

condition: buffer; pH 7.4; 200.0 µM
Output fulfilled for solubility kinetic not less than 7 µg/mL; output not fulfilled otherwise.

These solved cases illustrate the format of a correct answer.
molecule: Cc1cc(-c2onc(C)c2C(=O)Oc2ccc(Cl)cc2)no1
cat: not fulfilled
--
molecule: Clc1ccc2nc(-c3ccccc3)cn2c1
cat: not fulfilled
--
molecule: O=C(CSc1ccc(Cl)cc1)NC(=O)c1ccccc1
cat: not fulfilled
--
molecule: c1cnc(N2CCN(Cc3ccc4c(c3)OCO4)CC2)cn1
cat: fulfilled
--
molecule: COC(=O)c1sc(-c2ccccc2)cc1NC(C)=O
cat: not fulfilled
--
molecule: Cc1ccc(SC(C)C(=O)NCc2ccc(F)cc2)cc1 (stereo not drawn)
cat: fulfilled
--
molecule: CCOC(=O)c1cnc(SCC(=O)OC)nc1N
cat: fulfilled
--
molecule: COc1ccccc1Cn1c(C(C)C)nc2ccccc21
cat: fulfilled

[in] Reported solubility kinetic at or above 7 µg/mL? `Cn1ccnc1SCc1cccc([N+](=O)[O-])c1`
[out] fulfilled

[in] Reported solubility kinetic at or above 7 µg/mL? CC(Sc1ccccn1)C(=O)NC1CCCC1 (stereo not drawn)
[out] fulfilled

[in] Reported solubility kinetic at or above 7 µg/mL? `C=CCNc1nc(N)c([N+](=O)[O-])c(NCc2ccccc2)n1`
[out] not fulfilled

[in] Reported solubility kinetic at or above 7 µg/mL? `Cc1cc(C)c2nc(N(CCN(C)C)C(=O)c3ccc4ccccc4c3)sc2c1.Cl`
[out] not fulfilled

[in] Reported solubility kinetic at or above 7 µg/mL? CC(OC(=O)c1ccc(Cl)nc1)C(=O)Nc1ccc2c(c1)OCO2 (stereo not drawn)
[out] fulfilled

[in] Reported solubility kinetic at or above 7 µg/mL? Cc1cccc(N2C(=O)CC(c3ccc(F)cc3)C3=C2COC3=O)c1 (stereo not drawn)
[out] fulfilled

[in] Reported solubility kinetic at or above 7 µg/mL? C=CCC1Cc2c(Br)cccc2C(CC=C)N1 (stereo not drawn)
[out] fulfilled

[in] Reported solubility kinetic at or above 7 µg/mL? `Cc1cc(Cl)cc(C)c1OCCn1ccnc1.Cl`
[out] fulfilled

[in] Reported solubility kinetic at or above 7 µg/mL? `COCC(=O)Nc1cc(C)cn(Cc2ccccc2Cl)c1=O`
[out] fulfilled
